method: Metabolic stability of the compound in rat liver microsomes assessed as disappearance of compound after 30 mins by LC/MS analysis in presence of NADPH
Format: ADME, Microsome
details: read-out: Drug metabolism
Reported values of metabolised at 0.5 h for individual entries
reported_property: metabolised at 0.5 h (%)

# compound, reported_property, value_relation_sign, reading
rows = [
    ("Cn1c(=O)c2c(-c3ccccc3)n3c(c2n(C)c1=O)C(c1ccc(Br)o1)Oc1ccc(C(=O)O)cc1-3 (configuration not stated)", "metabolised at 0.5 h", "<", 5),
    ("Cc1ccc(C2Nc3ccccc3-n3c(-c4ccccc4)c4c(=O)n(C)c(=O)n(C)c4c32)o1 (configuration not stated)", "metabolised at 0.5 h", "=", 60),
]
